- Target entity: LATS1 (Homo sapiens, UniProt O95835)
- Sequence (O95835 whole entry): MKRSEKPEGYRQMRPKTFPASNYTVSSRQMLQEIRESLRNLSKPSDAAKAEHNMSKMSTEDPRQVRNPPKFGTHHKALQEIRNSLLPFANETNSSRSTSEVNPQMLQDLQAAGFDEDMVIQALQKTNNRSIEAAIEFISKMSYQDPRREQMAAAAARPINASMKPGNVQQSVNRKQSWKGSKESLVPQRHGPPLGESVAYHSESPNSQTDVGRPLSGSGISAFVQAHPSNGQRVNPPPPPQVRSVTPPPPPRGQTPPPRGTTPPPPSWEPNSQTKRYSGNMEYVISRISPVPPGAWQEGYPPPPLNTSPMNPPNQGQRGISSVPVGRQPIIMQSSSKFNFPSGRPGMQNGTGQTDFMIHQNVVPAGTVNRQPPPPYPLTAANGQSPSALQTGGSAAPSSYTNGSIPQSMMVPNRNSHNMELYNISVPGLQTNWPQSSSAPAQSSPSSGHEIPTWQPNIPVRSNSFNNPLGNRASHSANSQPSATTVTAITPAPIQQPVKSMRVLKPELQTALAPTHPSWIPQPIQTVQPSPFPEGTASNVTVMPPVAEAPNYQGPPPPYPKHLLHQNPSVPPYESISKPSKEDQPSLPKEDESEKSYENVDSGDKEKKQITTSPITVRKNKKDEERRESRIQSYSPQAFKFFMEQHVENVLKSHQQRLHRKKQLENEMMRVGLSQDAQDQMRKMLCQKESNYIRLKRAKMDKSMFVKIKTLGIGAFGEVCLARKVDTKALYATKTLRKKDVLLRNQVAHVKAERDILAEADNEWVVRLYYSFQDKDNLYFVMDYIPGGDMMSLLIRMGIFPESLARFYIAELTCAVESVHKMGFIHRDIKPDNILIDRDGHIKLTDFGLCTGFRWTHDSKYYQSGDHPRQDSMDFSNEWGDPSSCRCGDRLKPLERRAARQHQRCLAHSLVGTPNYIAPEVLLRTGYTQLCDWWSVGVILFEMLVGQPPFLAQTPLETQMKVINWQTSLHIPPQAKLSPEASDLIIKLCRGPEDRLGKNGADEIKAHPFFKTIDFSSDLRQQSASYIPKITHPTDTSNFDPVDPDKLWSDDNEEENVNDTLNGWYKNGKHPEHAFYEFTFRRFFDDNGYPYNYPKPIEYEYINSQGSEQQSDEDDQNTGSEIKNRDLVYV
- Assay notes: RBC HotSpot kinase assay (33P-ATP, P81 filter-binding), LATS1
- Assay type: biochemical
- Experimental conditions: Table 32, biochemical kinase assay; read-out: LATS1 IC50
Recorded endpoint: IC50 (nM)

Solved cases below.
Molecule | Experimental value
NCC(O)(c1ccc(Cl)cc1)c1ccc(-c2ccnc3[nH]cc(Br)c23)cc1 (centres unmarked) | 5.1
COC(=O)c1c[nH]c2nccc(-c3ccc(C(O)(CN)c4ccc(Cl)cc4)cc3)c12 (centres unmarked) | 4
NCC(O)(c1ccc(Cl)cc1)c1ccc(-c2ccnc3[nH]cc(-c4cccnc4)c23)cc1 (centres unmarked) | 4.3

[P] NCC(O)(c1ccc(Cl)cc1)c1ccc(-c2ccnc3[nH]cc(-c4ccccc4)c23)nc1 (centres unmarked)
[Q] O=C(CO)NCC(O)(c1ccc(Cl)cc1)c1ccc(-c2ccnc3[nH]cc(Cl)c23)cc1 (centres unmarked)
Q) Lab log: flag the item ( P or Q ) with the smaller IC50 figure. Answer by quoting the chosen item's label.
A) Q

[A] CC(=O)NCC(O)(c1ccc(Cl)cc1)c1ccc(-c2ccnc3[nH]ccc23)cc1 (centres unmarked)
[B] NCC(O)(c1ccc(Cl)cc1)c1ccc(-c2ccnc3[nH]ccc23)cc1 (centres unmarked)
[C] CC(C)(O)C(=O)NCC(O)(c1ccc(Cl)cc1)c1ccc(-c2ccnc3[nH]ccc23)cc1 (centres unmarked)
Q) Reorder the items by IC50, least to greatest. Reply with the item labels sorted in the order that was asked for.
A) B, A, C
(B: 1.8 nM, A: 3.7 nM, C: 18.7 nM)

---

- Target entity: LATS2 (Homo sapiens, UniProt Q9NRM7)
- Sequence (Q9NRM7 whole entry): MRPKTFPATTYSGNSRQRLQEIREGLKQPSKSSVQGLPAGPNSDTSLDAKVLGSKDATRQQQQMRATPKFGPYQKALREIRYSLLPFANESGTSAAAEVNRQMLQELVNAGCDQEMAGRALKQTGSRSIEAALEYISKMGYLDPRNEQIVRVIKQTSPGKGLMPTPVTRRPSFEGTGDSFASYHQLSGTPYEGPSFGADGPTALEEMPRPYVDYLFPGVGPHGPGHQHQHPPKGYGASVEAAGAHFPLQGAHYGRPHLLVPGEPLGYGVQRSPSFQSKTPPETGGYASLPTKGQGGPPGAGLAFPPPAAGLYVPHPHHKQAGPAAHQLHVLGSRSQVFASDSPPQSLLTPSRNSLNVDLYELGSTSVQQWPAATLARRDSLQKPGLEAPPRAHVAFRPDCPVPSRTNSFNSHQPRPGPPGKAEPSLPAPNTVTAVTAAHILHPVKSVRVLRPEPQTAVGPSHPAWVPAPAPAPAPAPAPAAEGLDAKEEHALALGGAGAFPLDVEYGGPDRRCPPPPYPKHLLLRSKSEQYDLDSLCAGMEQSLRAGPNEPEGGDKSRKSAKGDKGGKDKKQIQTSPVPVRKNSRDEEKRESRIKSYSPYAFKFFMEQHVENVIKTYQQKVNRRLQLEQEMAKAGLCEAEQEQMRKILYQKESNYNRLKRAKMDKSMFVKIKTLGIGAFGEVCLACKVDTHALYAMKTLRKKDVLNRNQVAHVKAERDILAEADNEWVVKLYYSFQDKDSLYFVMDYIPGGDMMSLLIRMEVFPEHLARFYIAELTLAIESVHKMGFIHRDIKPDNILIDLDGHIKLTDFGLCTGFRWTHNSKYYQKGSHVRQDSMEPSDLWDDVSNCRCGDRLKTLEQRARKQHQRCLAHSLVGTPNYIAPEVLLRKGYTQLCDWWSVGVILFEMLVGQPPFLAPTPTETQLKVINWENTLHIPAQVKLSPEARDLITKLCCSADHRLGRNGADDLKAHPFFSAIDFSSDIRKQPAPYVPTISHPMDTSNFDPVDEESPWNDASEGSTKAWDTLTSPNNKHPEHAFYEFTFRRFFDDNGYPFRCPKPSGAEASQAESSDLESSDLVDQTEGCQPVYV
- Assay notes: RBC HotSpot kinase assay (33P-ATP, P81 filter-binding), LATS2
- Format: biochemical
- Experimental conditions: Table 28, biochemical kinase assay; read-out: LATS2 IC50
pIC50: −log10 of the molar value.
Recorded endpoint: pIC50

[a] C[C@@H]1CN(C2CCS(=O)(=O)CC2)C[C@H](C)[C@@]1(O)c1ccc(-c2ccnc3[nH]cc(F)c23)cc1Cl [Compound 26]
[b] CN1[C@@H]2CC[C@H]1CC(O)(c1ccc(-c3ccnc4[nH]cc(F)c34)cc1)C2 (stereo partly shown) [Compound 133]
[c] CC(C)(N)c1ccc(-c2ccnc3[nH]ccc23)cc1-c1ccccc1 [Compound 206]
Q) Task for the reader: place the compounds above in descending order according to recorded pIC50. Use the labels to give the requested order.
A) a, b, c
(a: 9.29, b: 7.72, c: 7.13)

[a] CC1CC(O)(c2ccc(-c3ccnc4[nH]cc(F)c34)cc2Cl)CC(C)N1 (stereo not shown) [Compound 100]
[b] Cc1cc(-c2ccnc3[nH]cc(F)c23)cc(F)c1[C@@]1(O)[C@H](C)CN(C(=O)[C@@H]2CC(F)(F)CN2)C[C@@H]1C [Compound 64]
Q) // compare measured pIC50, left a , right b , return larger Lab note: record the label of whichever item you select.
A) b

---

- Target entity: LATS2 (Homo sapiens, UniProt Q9NRM7)
- Assay notes: RBC HotSpot kinase assay (33P-ATP, P81 filter-binding), LATS2
- Type: biochemical
- Experimental conditions: Table 28, biochemical kinase assay; read-out: LATS2 IC50
pIC50: −log10 of the molar value.
Recorded endpoint: pIC50

Some compounds with recorded pIC50:
Compound | pIC50
Cc1nc(-c2ccnc3[nH]ccc23)ccc1C1(O)CCN(C)CC1 [Compound 135] | 6.17
Cc1cc(-c2ccnc3[nH]cc(F)c23)cc(F)c1[C@@]1(O)[C@H](C)CN(C(=O)[C@@H]2C[C@@H](O)CN2)C[C@@H]1C [Compound 69] | 8.47

[1] C[C@@H]1CN(C(=O)CN)C[C@H](C)[C@@]1(O)c1ccc(-c2ccnc3[nH]cc(F)c23)cc1Cl [Compound 75]
[2] COc1ccc(-c2c[nH]c3nccc(-c4ccc(CN)cc4)c23)cc1 [Compound 239]
Q) 1 or 2 : whose pIC50 is greater? Which one? Tell me its label.
A) 1

---

- Target entity: AKT (Homo sapiens, UniProt P31749)
- Sequence (P31749 whole entry): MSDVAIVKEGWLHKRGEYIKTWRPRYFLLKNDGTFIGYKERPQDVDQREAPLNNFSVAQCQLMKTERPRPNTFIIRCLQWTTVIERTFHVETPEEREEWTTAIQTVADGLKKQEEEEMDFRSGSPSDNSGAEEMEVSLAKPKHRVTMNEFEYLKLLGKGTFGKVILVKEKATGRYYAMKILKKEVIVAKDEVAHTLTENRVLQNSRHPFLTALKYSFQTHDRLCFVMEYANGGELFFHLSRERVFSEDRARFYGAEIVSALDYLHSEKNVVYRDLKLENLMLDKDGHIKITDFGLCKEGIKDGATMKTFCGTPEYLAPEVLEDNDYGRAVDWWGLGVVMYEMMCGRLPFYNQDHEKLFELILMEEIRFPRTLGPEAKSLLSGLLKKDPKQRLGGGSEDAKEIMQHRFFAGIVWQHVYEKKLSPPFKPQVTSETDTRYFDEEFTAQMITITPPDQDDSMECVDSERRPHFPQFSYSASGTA
- Assay notes: RBC HotSpot kinase assay (33P-ATP, P81 filter-binding), AKT
- Format: biochemical
- Experimental conditions: Table 28, biochemical kinase assay; read-out: AKT IC50
pIC50: −log10 of the molar value.
Recorded endpoint: pIC50

Smiles str | pIC50
CC(C)(C)Nc1cc(-c2ccnc3[nH]ccc23)ccc1CN | 5.86
Cc1cc(-c2ccnc3[nH]cc(F)c23)cc(F)c1[C@@]1(O)[C@H](C)CN(C(=O)[C@@H]2CCCN2)C[C@@H]1C | 6.17

[1] C[C@@H]1CNC[C@H](C)[C@@]1(O)c1ccc(-c2ccnc3[nH]cc(F)c23)nc1
[2] Cc1cc(-c2ccnc3[nH]cc(F)c23)cc(F)c1[C@@]1(O)[C@H](C)CN(C(=O)CN(C)C)C[C@@H]1C
Q) pIC50 comparison. Which is larger, 1 or 2 ? Lab note: record the label of whichever item you select.
A) 2
(2: 6.03, 1: 5.48)

---

- Target entity: LATS1 (Homo sapiens)
- Assay notes: RBC HotSpot kinase assay (33P-ATP, P81 filter-binding), LATS1
- Type: biochemical
- Experimental conditions: Table 28, biochemical kinase assay; read-out: LATS1 IC50
pIC50: −log10 of the molar value.
Recorded endpoint: pIC50

For orientation, consider the following solved cases.
Molecule | pIC50
NCc1ccc(-c2ccnc3[nH]cc(-c4ccc(F)cc4)c23)cc1 [Compound 243] | 7.14
C[C@@H]1CN(C2CCC2)C[C@H](C)[C@@]1(O)c1c(F)cc(-c2ccnc3[nH]cc(F)c23)cc1F [Compound 46] | 8.77
C=C(C)c1c[nH]c2nccc(-c3ccc(CN)c(-c4ccccc4)c3)c12 [Compound 224] | 7.14
Fc1cc(C2CCNCC2)ccc1-c1ccnc2[nH]ccc12 [Compound 181] | 7.17
CC(C)(N)c1ccc(-c2ccnc3[nH]cc(F)c23)cc1 [Compound 238] | 8.96
Fc1c[nH]c2nccc(-c3ccc(C4CCNCC4)cc3)c12 [Compound 169] | 7.82

[A] Cc1nnc(C2(c3ccc(-c4ccnc5[nH]cc(F)c45)cc3)CCN(C(=O)OC(C)(C)C)CC2)o1 [Compound 195]
[B] Cc1cc(-c2ccnc3[nH]cc(-c4cccnc4)c23)cc(F)c1[C@@]1(O)[C@H](C)CN(C(=O)CN)C[C@@H]1C [Compound 318]
Q) Which has the smaller recorded pIC50, A or B ? Lab note: record the label of whichever item you select.
A) A
(A: 5.24, B: 8.39)

---

- Target entity: UniProtKB P31749
- Assay notes: RBC HotSpot kinase assay (33P-ATP, P81 filter-binding), AKT
- Type: biochemical
- Experimental conditions: biochemical kinase inhibition; read-out: AKT IC50
Recorded endpoint: IC50 (nM)

[A] CNCC(=O)N1C[C@@H](C)[C@](O)(c2c(C)cc(-c3ccnc4[nH]cc(C#N)c34)cc2F)[C@@H](C)C1
[B] Cc1cc(-c2ccnc3[nH]cc(C#N)c23)ccc1[C@@]1(O)[C@H](C)CN(C(=O)CN)C[C@@H]1C
[C] Cc1cc(-c2ccnc3[nH]cc(C#N)c23)cc(F)c1[C@@]1(O)[C@H](C)CN(C(=O)CNCC(F)(F)F)C[C@@H]1C
[D] Cc1cc(-c2ccnc3[nH]cc(C#N)c23)cc(F)c1[C@@]1(O)[C@H](C)CN(C(=O)CN)C[C@@H]1C
Q) Sort entries by IC50 from minimum to maximum value. Answer by listing the labels in the order asked for.
A) B, D, A, C
(B: 22 nM, D: 118 nM, A: 349 nM, C: 3010 nM)

---

- Target entity: UniProtKB P31749
- Assay notes: RBC HotSpot kinase assay (33P-ATP, P81 filter-binding), AKT
- Format: biochemical
- Experimental conditions: Table 28, biochemical kinase assay; read-out: AKT IC50
pIC50: −log10 of the molar value.
Recorded endpoint: pIC50

As a guide, the following entries are already answered.
Compound | pIC50
C[C@@H]1CN(C2CCS(=O)(=O)CC2)C[C@H](C)C1(O)c1c(F)cc(-c2ccnc3[nH]cc(F)c23)cc1F (stereo partly shown) | 6.89
COc1cc(-c2ccnc3[nH]cc(F)c23)ncc1[C@@]1(O)[C@H](C)CNC[C@@H]1C | 5.38
CC(C)c1c[nH]c2nccc(-c3ccc(CN)c(-c4ccccc4)c3)c12 | 6.00
Cc1cc(-c2ccnc3[nH]cc(Cl)c23)ccc1CN | 6.94
O=C([C@@H]1CCCN1)N1CC(O)(c2ccc(-c3ccnc4[nH]cc(F)c34)cc2Cl)C1 | 5.56
C[C@@H]1CNC[C@H](C)C1(O)c1cnc(-c2ccnc3[nH]cc(F)c23)cc1-c1ccccc1 (stereo partly shown) | 5.65

[1] Cc1cc(-c2ccnc3[nH]cc(F)c23)cc(F)c1[C@@]1(O)[C@H](C)CN(C(=O)[C@@H]2COCCN2)C[C@@H]1C
[2] Clc1c[nH]c2nccc(-c3ccc(C4CCNCC4)cc3)c12
Q) Between the entries labelled 1 and 2 , which has a larger pIC50 value on record? Reply briefly: the label of your chosen item.
A) 2
(2: 6.48, 1: 5.78)

[1] C[C@@H]1CN(C(=O)[C@H]2CCCN2)C[C@H](C)[C@@]1(O)c1c(F)cc(-c2ccnc3[nH]cc(F)c23)cc1F
[2] C[C@@H]1CN(C2CC3(CNC3)C2)C[C@H](C)[C@@]1(O)c1c(F)cc(-c2ccnc3[nH]cc(F)c23)cc1F
[3] CC1CC(O)(c2ccc(-c3ccnc4[nH]cc(F)c34)cc2Cl)CCN1 (stereo not shown)
Q) Could you please sort these 3 entries by pIC50 from high to low? As an answer, provide the labels arranged in the order called for.
A) 2, 3, 1
(2: 7.17, 3: 6.42, 1: 5.83)

[a] Cc1cc(-c2ccnc3[nH]cc(F)c23)ccc1[C@@]1(O)[C@H](C)CN(C)C[C@@H]1C
[b] C[C@@H]1CN(C(=O)C2(N)CC2)C[C@H](C)C1(O)c1c(F)cc(-c2ccnc3[nH]cc(F)c23)cc1F (stereo partly shown)
Q) Which has the smaller recorded pIC50, a or b ? Your answer should be the label of the entry you select.
A) b
